System Tested: Carboxypeptidase A1 (Bos taurus)
Sequence (P00730 whole entry): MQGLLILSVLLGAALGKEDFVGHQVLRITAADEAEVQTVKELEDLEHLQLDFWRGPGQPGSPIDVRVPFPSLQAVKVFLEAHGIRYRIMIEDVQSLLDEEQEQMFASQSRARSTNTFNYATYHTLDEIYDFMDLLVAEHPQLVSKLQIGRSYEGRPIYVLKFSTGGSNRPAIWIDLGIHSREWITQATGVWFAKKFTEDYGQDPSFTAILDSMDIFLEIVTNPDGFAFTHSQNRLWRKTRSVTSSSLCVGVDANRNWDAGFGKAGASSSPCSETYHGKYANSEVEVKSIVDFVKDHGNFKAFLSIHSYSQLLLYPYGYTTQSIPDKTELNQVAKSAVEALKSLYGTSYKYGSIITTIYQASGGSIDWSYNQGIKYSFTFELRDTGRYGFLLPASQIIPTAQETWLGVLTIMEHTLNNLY
Protocol Details: Inhibitory activity against Carboxypeptidase A
Value Type: Ki (µM)

1 = CN([C@@H](Cc1ccccc1)C(=O)O)S(N)(=O)=O
2 = CNS(=O)(=O)N[C@@H](Cc1ccccc1)C(=O)O
## Task # argmax over Ki for candidates 1 and 2 Mark your selection by writing its label.
## Result 1
(1: 3500 µM, 2: 180 µM)
